- PROTOCOL: Volume of distribution at steady state in Han Wistar rat at 5.2 umol/kg, iv
- Assay type: ADME, organism-based
- REPORTED CONDITIONS: in vivo, read-out: Vdss
PROPERTY NAME: Vd (L/kg)

[[record]]
structure_as_smiles = "O=C(N[C@H]1C2CC3CC1C[C@](O)(C3)C2)c1sc(OC2CCOCC2)nc1[C@H]1CCCO1"
units_of_measure = "L/kg"
result_value = 1


* * *

- PROTOCOL: Oral bioavailability in Han Wistar rat at 12.3 umol/kg
- Format: ADME, organism-based
- REPORTED CONDITIONS: in vivo
PROPERTY NAME: bioavailability (%)

[[record]]
structure_as_smiles = "N#CC1(COc2nc(C3CC3)c(C(=O)N[C@H]3C4CC5CC3C[C@](O)(C5)C4)s2)CC1"
property_name = "bioavailability"
result_value = 79


* * *

- PROTOCOL: Volume of distribution at steady state in Han Wistar rat at 3.1 umol/kg, iv
- Type: ADME, organism-based
- REPORTED CONDITIONS: in vivo, read-out: Vdss
PROPERTY NAME: Vd (L/kg)

[[record]]
structure_as_smiles = "N#CC1(COc2nc(C3CC3)c(C(=O)N[C@H]3C4CC5CC3C[C@](O)(C5)C4)s2)CC1"
property_name = "Vd"
result_value = 0.6


* * *

- PROTOCOL: Ratio of free drug level in brain to blood in Han Wistar rat at 30 mg/kg, po measured at 1 hr by LC-MS/MS analysis
- Assay type: ADME, organism-based
- Parameters: dose 30 mg/kg, route oral
PROPERTY NAME: Kp uu at 1 h

[[record]]
structure_as_smiles = "O=C(N[C@H]1C2CC3CC1C[C@](O)(C3)C2)c1sc(OC2CCOCC2)nc1[C@H]1CCCO1"
result_value = 0.9

[[record]]
structure_as_smiles = "N#CC1(COc2nc(C3CC3)c(C(=O)N[C@H]3C4CC5CC3C[C@](O)(C5)C4)s2)CC1"
result_value = 0.4


* * *

Papp A→B overview
- PROTOCOL: Apparent permeability from apical to basolateral side in MDCK cells
- Type: ADME, cell-based, Canis lupus familiaris
- REPORTED CONDITIONS: dog
PROPERTY NAME: Papp A→B (×10⁻⁶ cm/s)

[[record]]
compound = "O=C(NC1C2CC3CC1CC(O)(C3)C2)c1cnc(N[C@H]2CCOC2)nc1C1CCCC1 (stereo partly drawn)"
property_name = "Papp A→B"
result_value = 3

[[record]]
compound = "C[C@@H]1CN(c2ncc(C(=O)NC3C4CC5CC3CC(O)(C5)C4)c(C3CCCC3)n2)C[C@H](C)O1 (stereo partly drawn)"
property_name = "Papp A→B"
result_value = 20

[[record]]
compound = "C[C@@H]1CN(c2ncc(C(=O)NC3C4CC5CC3CC(O)(C5)C4)c([C@H]3CCCO3)n2)C[C@H](C)O1 (stereo partly drawn)"
property_name = "Papp A→B"
result_value = 23


* * *

- PROTOCOL: Volume of distribution at steady state in C57B6 mouse at 3.5 umol/kg, iv
- Format: ADME, organism-based
- REPORTED CONDITIONS: in vivo, read-out: Vdss
PROPERTY NAME: Vd (L/kg)

[[record]]
structure_as_smiles = "O=C(N[C@H]1C2CC3CC1C[C@](O)(C3)C2)c1sc(OC2CCOCC2)nc1[C@H]1CCCO1"
property_name = "Vd"
result_value = 1.7

